# Tested on: SN12C
# test_name: NCI tumour cell line growth inhibition, 48 h
Activity calls are given as the source filed them. Rule as the data show it: active = GI50 up to about 1.1 µM and inactive = higher.
parameter_measured: GI50

{"columns": ["molecule", "result"],
 "data": [
  ["Cc1ccc(Nc2n[nH]c(NS(=O)(=O)c3cc(C(=O)Nc4ccc(Cl)cc4)c(Cl)cc3S)n2)cc1", "> 100 µM (inactive)"],
  ["CN1CCN(/C(N)=C(\\C#N)C(=O)Nc2ccccc2)CC1", "> 100 µM (inactive)"],
  ["CNC(=S)N/N=C/c1cccc(C)n1", "26.4 µM (inactive)"],
  ["COC(=O)C1CCC(=O)N1C(c1ccccc1)c1cc(OC)c(OC)c(OC)c1 (configuration not stated)", "80.5 µM (inactive)"],
  ["CC(=O)O[C@]12CCC[C@H]1C1(O)C(O)CCC[C@H]12 (some centres not stated)", "> 100 µM (inactive)"],
  ["COC1CC(OC)C(O)C(CO)O1 (configuration not stated)", "> 100 µM (inactive)"],
  ["O=C1NC(=O)[C@@H](OCC2CCCCC2)[C@@H]2OCC3OC(C(O)C3O)C12 (some centres not stated)", "> 100 µM (inactive)"],
  ["CC/C(=N\\NS(=O)(=O)c1ccccc1)c1ccccc1", "> 100 µM (inactive)"]
]}

Req: // fetch GI50 given entry COc1cc(/C=C/C(=O)C(C)(C)C)cc(OC)c1OC
Resp: 34.3 µM (inactive)

Req: Complete the entry with GI50 for Cc1c2cnccc2nc2[nH]c3ccncc3c12
Resp: 3.33 µM (inactive)

Req: For the molecule O=C1CCC(=O)C1=NNc1cc(Cl)cc(Cl)c1 , report GI50.
Resp: > 100 µM (inactive)

Req: Note down GI50 recorded for COc1ccc(-n2c3c(c4cc(O)ccc42)Cc2ccccc2C3=O)cc1
Resp: 57.3 µM (inactive)

Req: Return the recorded GI50 value; entry: CC[C@]1(Cc2ccc(OC)c(OC)c2)C=[N+]([O-])O[C@H](OC2CCCCC2c2ccccc2)[C@@H]1OC(C)=O (some centres not stated)
Resp: 36.6 µM (inactive)

Req: Hello, please tell me recorded GI50 for this one: N#Cc1nc(-c2ccsc2)oc1N
Resp: > 100 µM (inactive)

Req: Assign GI50 to the following record: CCOC(=O)NNC(=O)C1CSC(c2ccccc2)N1C(C)=O (configuration not stated)
Resp: > 100 µM (inactive)

Req: Determine from records and report GI50 for O=C(CSc1nc(-c2ccccc2)c(-c2ccccc2)[nH]1)NNC(=S)Nc1ccccc1
Resp: > 100 µM (inactive)

Req: Given the molecule COc1cc(CNc2nc3c(N)cc(C(F)(F)F)cc3nc2-c2ccccc2)cc(OC)c1OC , write its reported GI50.
Resp: 70.3 µM (inactive)

Req: Return GI50 (reported value) for this molecule: CC(C)(C)OC(=O)N[C@H]1CC(=O)c2ccccc2N(CC(=O)O)C1=O
Resp: > 100 µM (inactive)

Req: Give me measured GI50, please, for this molecule: Cc1cc(N2CCOCC2)nc2ccc(Cc3ccc4nc(N5CCOCC5)cc(C)c4c3)cc12
Resp: 55.8 µM (inactive)

Req: Report measured GI50; entry is COc1ccc(/C=C2\N=C(SC)N(C)C2=O)cc1
Resp: 71.6 µM (inactive)

Req: Provide measured GI50 value, entry: Cn1c(-c2ccc(/N=N/Nc3ccc(-c4n[nH]c(=S)n4C)cc3)cc2)n[nH]c1=S
Resp: > 100 µM (inactive)

Req: Quick one: give measured GI50 for CC(=O)CC(OC(C)=O)C1=CCC2C(CC1C)OC(=O)C2C (configuration not stated)
Resp: > 100 µM (inactive)

* * *

# System: KM12
# test_name: NCI tumour cell line growth inhibition, 48 h
Calls of active or inactive are those of the source. Cut-off read from the data, not from the text of the source: active = GI50 up to about 1.1 µM and inactive = higher.
Answer with one of the outcomes given here: true = active, false = inactive

Here's what some known entries look like.
{"columns": ["compound", "class_name"],
 "data": [
  ["O=C1C(Cl)N(c2cccc(Cl)c2)C1c1c[nH]c2ccccc12 (configuration not stated)", "false"],
  ["O=[N+]([O-])C(C(Cl)=C(Cl)Cl)=C(n1cncn1)n1cncn1", "false"],
  ["CCCN1CN(c2ccccc2)C2(CCN(CCCC(=O)c3ccc(F)cc3)CC2)C1=O", "false"],
  ["COc1ccc(NC(=O)CC(=O)n2nc(C)c(/N=N/c3cccc(C)c3)c2C)cc1", "false"],
  ["CNCCCNC1(c2cc3ccccc3s2)CCCCC1", "false"]
]}

Req: Could you check what this test reported for COc1cc(C(=O)O[C@@H]2[C@@H](OC(=O)c3cc(OC)c(OC)c(OC)c3)[C@@H](OC)O[C@@H]3CO[C@@H](c4ccccc4)O[C@@H]23)cc(OC)c1OC ?
Resp: false

Req: I'd appreciate the recorded outcome for CCOC(=O)C(Cc1ccccc1)NC(=O)OC(C)(C)C (configuration not stated) from this test.
Resp: false

Req: Which result was noted for this compound in the test: C=CCN(c1cc(OCc2ccccc2)c(NC(C)=O)cc1[N+](=O)[O-])S(C)(=O)=O
Resp: false

Req: Please state the recorded outcome for this compound: CC(NNC(=O)c1ccc[n+]([BH2-]C#N)c1)c1ccccc1 (configuration not stated)
Resp: false

Req: Hi, sorry to bother you, what did the test record for Cc1ccc([N+](=O)[O-])cc1S(=O)(=O)Nc1ccc(C2=NN(c3ccc([N+](=O)[O-])cc3[N+](=O)[O-])C(c3ccccc3O)C2)cc1 (configuration not stated) ?
Resp: false

Req: Could you check what this test reported for COC1=C(C)C(=O)C2=C(C1=O)C1C3CC4=C(C(=O)C(OC)=C(C)C4=O)C(CNC(=O)C(C)O)N3C(C#N)C(C2)N1C (configuration not stated) ?
Resp: true

Req: Assay outcome for O=C1Nc2cccc(Cl)c2/C1=C\c1c(Cl)nc2n1CCS2 : what was it?
Resp: false

* * *

# Tested on: NCI-H522
# test_name: NCI tumour cell line growth inhibition, 48 h
Activity calls are given as the source filed them. Cut-off read from the data, not from the text of the source: active = GI50 up to about 1.1 µM and inactive = higher.
Mark one answer only. Choices: T (active), F (inactive)

{"columns": ["compound", "class_name"],
 "data": [
  ["COC(=O)c1c(O)ccc2c1c1c(n2Cc2ccccc2OC)C(=O)c2ccccc2C1=O", "F"],
  ["O=c1cc(CNC2CC3CCC2C3)[nH]c(=O)[nH]1 (stereo unspecified)", "F"],
  ["CN(C)c1ccc(C(=NNC(=O)c2cc3ccccc3[nH]2)c2ccc(N(C)C)cc2)cc1", "T"],
  ["CC(C)(C)/N=N/C(C)(C)N=C=O", "F"],
  ["O=c1[nH]c(C2CCCCC2)nc2c(Cl)cccc12", "F"]
]}

Now take the following compound into account.
Req: Recorded call for CC(NNC(=O)c1ccc[n+]([BH2-]C#N)c1)c1ccccc1 (stereo unspecified) ?
Resp: F

* * *

The compounds listed here are annotated with their GI50.
# Tested on: MOLT-4
# test_name: NCI tumour cell line growth inhibition, 48 h
Active and inactive are the calls of the source. Cut-off read from the data, not from the text of the source: active = GI50 up to about 1.1 µM and inactive = higher.

Some solved entries appear below for comparison.
{"columns": ["compound", "GI50"],
 "data": [
  ["COc1cc2c(OC)c(c1)CCCC1=CC(=O)C=C(CCC2)C1=O", "2.72 µM (inactive)"],
  ["COc1ccc2c(c1)CCN=C2Cc1cc(OC)c(OC)cc1CCCl", "54.8 µM (inactive)"],
  ["COc1c(OC)c(OC)c(C(=O)/C=C/c2ccccc2)c(OC)c1OC", "8.83 µM (inactive)"]
]}

Req: Please report GI50 for the following compound: COC1CC(OC)C(O)C(CO)O1 (stereo unspecified)
Resp: > 100 µM (inactive)

Req: Respond only with GI50 recorded for O=P(O)(O)C1CCCC(P(=O)(O)O)N1 (stereo unspecified)
Resp: > 100 µM (inactive)

Req: Fill in GI50 for record COC(=O)C1=CN(C2CCCCC2)C2(c3ccccc3)c3ccccc3C(=O)OC(=O)C12 (stereo unspecified)
Resp: 10.6 µM (inactive)

Req: Item COc1ccc2c(c1)O[C@@H]1C(O)Oc3cc(OC)c(OC)cc3[C@]1(O)C2=O (stereo partly specified) : provide GI50
Resp: 36.6 µM (inactive)

Req: Complete the entry with GI50 for O=C1NC2=C(CCCC/C2=N\O)C12CCCCC2
Resp: 57.8 µM (inactive)

* * *

# Test system: OVCAR-4
# test_name: NCI tumour cell line growth inhibition, 48 h
Active and inactive are the calls of the source. Rule as the data show it: active = GI50 up to about 1.1 µM and inactive = higher.
parameter_measured: GI50

Use the examples below as a reference point.
{"columns": ["compound", "GI50"],
 "data": [
  ["CCCN1CN(c2ccccc2)C2(CCN(CCCC(=O)c3ccc(F)cc3)CC2)C1=O", "2.48 µM (inactive)"],
  ["O=[N+]([O-])c1ccc(C2Nn3c(nnc3-c3cccc([N+](=O)[O-])c3)S2)cc1 (stereo not drawn)", "> 100 µM (inactive)"],
  ["NC(=O)NNC(=O)NC12CC3CC(CC(C3)C1)C2", "> 100 µM (inactive)"],
  ["CCCc1c(Cl)nc(Cl)nc1Cl", "10.2 µM (inactive)"],
  ["Nc1nnc(-c2ccco2)c(-c2ccco2)n1", "> 100 µM (inactive)"]
]}

Shift focus to the following entry.
Req: State its GI50 for this compound: CCOC(=O)C1=C(C)N(C2OC(COC(=O)c3ccccc3)C(OC(=O)c3ccccc3)C2OC(=O)c2ccccc2)C(=S)NC1c1ccccc1 (stereo not drawn)
Resp: 29.4 µM (inactive)
